Reference for the values: ChEMBL document CHEMBL1145244

Test system: Mycobacterium tuberculosis
Assay: In vitro antimycobacterial activity against ethambutol-resistant Mycobacterium tuberculosis strain
Assay type: functional
What MIC was measured for each of the following?
Write the answer as a number in µg/mL, unit excluded.

Incoming: Find the recorded MIC belonging to N#CC[n+]1ccc(C(=O)NNCc2ccccc2)cc1 and report it.
Outgoing: 6.25

Incoming: # query: MIC of entry O=C(N/N=C/c1ccc(C(F)(F)F)cc1)c1ccncc1
Outgoing: 0.2

Incoming: What does the data say about its MIC? Entry: N#CC[n+]1ccc(C(=O)NNCC(F)(F)F)cc1
Outgoing: 12.5

Incoming: Please report the recorded MIC for C/C=N/NC(=O)c1ccncc1 .
Outgoing: 0.025

Incoming: Reported MIC, compound C/C(=N\NC(=O)c1ccncc1)C(F)(F)F : ____
Outgoing: 0.2
